Sourced from PubChem BioAssay (NCI)

# GI50 per record follows
test system: OVCAR-5 ovarian; assay: NCI tumour cell line growth inhibition, 48 h

cpd.smiles: CNC(=O)c1cncc(/C=C/c2c(Cl)cccc2Cl)c1
study.system: OVCAR-5 ovarian
GI50: > 25 µM
--
cpd.smiles: COc1ccc2c(c1)C=C1CSCC3=Cc4cc(OC)ccc4OC13O2
study.system: OVCAR-5 ovarian
GI50: 0.757 µM

# evaluate next
The reported value for "CNc1ncc2cc(Oc3ccc(F)cc3F)c(=O)n(C)c2n1" in terms of GI50 is > 25 µM

---

test system: UACC-62 melanoma; experiment: NCI tumour cell line growth inhibition, 48 h
In this section we review reported TGI values for a set of compounds.

# example entries with known answers
compound: CCOP(=O)(OCC)C(=C1C=C(C(C)(C)C)C(=O)C(C(C)(C)C)=C1)P(=O)(OCC)OCC
study.system: UACC-62 melanoma
TGI: > 10 µM
--
compound: Cc1ncc(CO)c(C=NCCCCCCN=Cc2c(CO)cnc(C)c2O)c1O
study.system: UACC-62 melanoma
TGI: > 100 µM
--
compound: CCCCCCCCCCCCCCCCCc1nnc(N)o1
study.system: UACC-62 melanoma
TGI: > 100 µM

API: the following record is the query input.
The measured TGI associated with COC(=O)C1(C)OC(C)=NC1(C(=O)OC)C(=O)OC (centres undefined) reads > 100 µM

---

tested on: NCI-H226 lung; assay: NCI tumour cell line growth inhibition, 48 h
Quick list: GI50 per entry.

For orientation, consider the following solved cases.
compound: CCCCN(CCCC)CCC(O)c1cc2ccc(C(F)(F)F)cc2c2cc(C(F)(F)F)ccc12 (stereo not drawn)
experimental.result: 2.88 µM

compound: COc1ccc(C=C2C(=O)NC(=O)NC2=O)cc1OCc1ccccc1
experimental.result: 49.1 µg/mL

GI50 reported for this compound O=CN1N=C(c2ccc(Nc3ccnc4cc(Cl)ccc34)cc2)CC1c1ccc(Cl)cc1 (stereo not drawn) : 4.66 µM

---

test system: SK-MEL-2 melanoma; assay: NCI tumour cell line growth inhibition, 48 h
We begin with a simple list: items and their reported TGI.

Use the examples below as a reference point.
molecule: COc1cc2c(Cc3cc(OCc4ccccc4)ccc3N)nccc2c(OC)c1OC
study.system: SK-MEL-2 melanoma
TGI: > 10 µM
--
molecule: O=C(Cn1c2ccccc2c2ccncc21)N/N=C\c1ccc2ccccc2c1
study.system: SK-MEL-2 melanoma
TGI: 42 µM
--
molecule: CCOC(=O)c1cn(CC)c2cc3c(cc2c1=O)SCS3
study.system: SK-MEL-2 melanoma
TGI: > 100 µM
--
molecule: COC1C(O)C(C)OC(O[C@@H]2C[C@H]3CC[C@@H]4[C@H](CC[C@]5(C)[C@@H](C6=CC(=O)OC6)CC[C@]45O)[C@@]3(C)[C@H](O)C2)C1O (stereo not given in full)
study.system: SK-MEL-2 melanoma
TGI: 1.7 µM

TGI reading for "CC(=O)Oc1cc(S(=O)(=O)Nc2n[nH]c(N)n2)c(S)cc1Cl" : > 100 µM

---

test system: HOP-92 NSCLC; assay: NCI tumour cell line growth inhibition, 48 h
readout: TGI

Consider the reported TGI for these molecules:
molecule: C/C([O-])=C(/c1nc(-c2ccc([N+](=O)[O-])o2)no1)[n+]1cc(C)ccc1C
experimental.result: > 100 µM

molecule: CCSC12CC3c4cccc5c4C(CN5C(=O)c4ccccc4)CC3(O1)N(C)C2=O (centres undefined)
experimental.result: 71.9 µM

molecule: COc1cccc(C(=O)N[C@@H]2[C@H](O)[C@@H](CO)O[C@H]2n2cnc3c(N)ncnc32)c1
experimental.result: > 100 µM

molecule: C=CC[C@H]1[C@H](O[Si](C)(C)C(C)(C)C)C=CC(=O)[C@@H]1CC(=O)OCC
experimental.result: 24.2 µM

molecule: CC(=O)O/N=C/c1cc2c(cc1Br)OCO2
experimental.result: > 349 µM

molecule: Oc1ccccc1-n1nc2ccc3nonc3c2n1
experimental.result: > 100 µM

molecule: CN(CCO)/N=N/c1nc[nH]c1C(N)=O
experimental.result: > 100 µM

molecule: Cc1ccc(-n2cc(-c3ccc(Cl)cc3)c3c2N=CN2NC(c4cccs4)=NC32)cc1 (centres undefined)
experimental.result: 24 µM

molecule: CC(=O)n1c(-c2ccc(Cl)c(Cl)c2)cn(-c2ccc(Cl)cc2)c1=O
experimental.result: 30.2 µM

molecule: O=C1/C(=C/c2ccc(Cl)cc2)Sc2scc(-c3cccc([N+](=O)[O-])c3)[n+]21
experimental.result: 5.39 µM

Data point: C#CC(O)Cc1ccc(OC)c2occc12 (centres undefined) ; TGI = > 100 µM

Lab note: "O=S(=O)(N/N=C/c1ccc(Cl)cc1Cl)c1ccccc1" gave TGI of 94.9 µM

// "CCCc1cc(-c2ccc(-c3cc(CCC)c(C=O)[nH]3)s2)[nH]c1C=O" : TGI value = > 100 µM

The molecule C[N+]12CCCCC1C(CN1C(=O)c3ccccc3C1=O)CCC2 (centres undefined) showed TGI equal to > 100 µM

The recorded TGI for entry "CCCCCCC(=O)OC[n+]1cccc(-c2c(COC(=O)NC(C)C)c(COC(=O)NC(C)C)c3n2CCC3)c1" equals 66.4 µM

The molecule listed as OC1(c2ccc3ccccc3c2)c2c(c3ccccc3c3ccccc23)C2=NCCN21 (centres undefined) has a reported TGI of 70.3 µM

The measured TGI associated with "O=C(O)CCc1nc2cc3ccccc3cc2[nH]c1=O" reads > 100 µM
